test: Solubility of the compound in JP1; format: physicochemical
metricName: solubility (µg/mL)

{"columns": ["compoundStructure", "endpointUnit", "solubility"],
 "data": [
  ["O=C(Cc1cccc(Oc2ccccc2)c1)N1CCNc2nc(C(F)(F)F)ccc2C1", "µg/mL", 11]
]}

[P] CC(C)COc1cccc(CC(=O)N2CCNc3nc(C(F)(F)F)ccc3[C@H]2CC(=O)O)c1
[Q] Cc1ccc(Oc2cccc(CC(=O)N3CCNc4nc(C(F)(F)F)ccc4[C@H]3CC(=O)O)c2)cn1
Which is greater in solubility, the first item P or the second item Q ? Refer to your chosen item by its label in the answer.
Q
(Q: 960 µg/mL, P: 40 µg/mL)
